experiment: protein stability index of a GFP-peptide fusion (GPS, HEK-293T) (PSI 1-6); higher = more stable; conditions: treatment: DMSO; c terminus: a fixed tail appended;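 note: 24-mer peptide tiles fused after GFP, lentivirally expressed, FACS-sorted into six equal bins by GFP/DsRed ratio, decoded by Illumina sequencing, PSI is the read-weighted mean bin number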
For each entry below, report its protein stability index value.
Please give the numeric answer without any surrounding text.

Indicate the recorded protein stability index value for this sequence: VPTPKSHLQLLGAVCMFLASKLKE [CCND2]
2.11

# return recorded protein stability index for input LGSGPDRELRKPEEPENGEPTAAA [PWWP2B]
5.52

Note protein stability index for the sequence shown: SVFKKGRRRVPVRNLGKVVHYAKV [PLEKHN1]
2.36

Fill in reported protein stability index for this entry: KSEEELAECFRIFDRNADGYIDPE [TNNC2]
4.8

Quote protein stability index reported for CVVCGDKSSGKHYGQFTCEGCKSF [NR2F2] please.
4.76

For the sequence IVKQMKIIHEAGYSEEECKQYKAV [GNAI1] , give its reported protein stability index.
3.13

Please look at this sequence and report its protein stability index: RAYRFVQGKDWGFKKFIRRDFLLD [SPOPL]
2.48

Output protein stability index of KGNREDSARMSAGLPGPEAARSGD [PLEKHN1]
5.41

Quick one: give measured protein stability index for LDEALKHVKETQPPETVQNWIELL [GOLPH3]
3.94

Dear colleague, please send me the reported protein stability index for LLIEGRSVNEHTEEGESLLCLACS [ANKRD17] when you can.
3.22

In one line, give reported protein stability index of the entry TVKHIDAALSEENTGKTYFFVANK [MMP1] .
3.28

# return recorded protein stability index for input LELTVRRVQGVLRGRAREREQLQA [HES6]
3.7

Give recorded protein stability index. HYGNIMYDRRVIRGNTYALQTGPL [RSPH3]
2.33

Hello, please tell me recorded protein stability index for this one: LFEEILSNSRQLKWLSCGFMLEIV [FBXO33]
3.02

Please report the measured protein stability index for RTAFLWRGNVVLRAQMIRNEYRKL [TRIM43]
2.66

Read the entry FTGVITQGRNSLWLSDWVTSYKVM [CPXM2] and write its reported protein stability index.
3.21

Fill in protein stability index for record SMEKDATLNVDRKEKCVSLPDCCH [DLC1]
4.81

Write down protein stability index measured for item ESMYGDFQEAMTHLQHKLICTRKP [TENT5D]
3.54

Supply protein stability index value. Item: FEHEMEESKKNRVEINDLDPEVFK [SPOPL]
4.99

Consider the sequence ECAMETTEEQTRQERQGPAKPEVL [NECAB1] . State its measured protein stability index.
5.57

Find the measured protein stability index of EKTNGATPLLMAARYGHLDMVEFL [FEM1C] and report it.
2.91

Complete the entry with protein stability index for ETAGQKPLSVHRPPTSGCLGPVPR [TSPAN10]
4.25

# return recorded protein stability index for input VGNNHESWGWDLGRNRLYHDGKNQ [SPSB1]
3.83

For the sequence VRLMRQLLVINESIESIKWMIEEK [LURAP1L] , give its measured protein stability index value.
2.75

Supply recorded protein stability index for VPRYTGVAPQDQCKLTCQAQALGY [ADAMTS4] here.
2.4

Identify measured protein stability index associated with TQYFAELLMTSGVVLCEGVKWLSF [CNOT7]
3.25

Indicate its recorded protein stability index; the sequence in question is MFSVLSYGRLVARAVLGGLSQTDP [PPTC7]
2.01
